MEASUREMENT CONTEXT: 298.15 K; 101.33 kPa; Liquid
Numbers after ± are expanded uncertainties.
Record form. Attribute: mass density. Fill in for each entry.
Returns: string containing the number followed by the unit.

Answered cases to consult:
> print(dat)
                     compound  measured.property  experimental.value
1      C1COCCO1 [1,4-dioxane]       mass density  1027.9 ± 0.7 kg/m3
2  C1CCOCC1 [tetrahydropyran]       mass density     878.8 ± 1 kg/m3
3     C1COCO1 [1,3-dioxolane]       mass density    1059 ± 0.9 kg/m3

Each compound below has a reported value. Please supply its mass density.
1. C1CCOC1 [tetrahydrofuran]
2. CCCCCCCl [1-chlorohexane]

Reply text:
1: 882 ± 0.5 kg/m3; 2: 873.5 ± 1 kg/m3
